Biological target: T1, recombinant human B7-H3 (4Ig) protein, with His tag (human, UniProt Q5ZPR3 29-461, limits assumed)
T1 construct: Bought protein; also called human B7-H3 (4Ig)/B7-H3b protein
T1 sequence (looked up): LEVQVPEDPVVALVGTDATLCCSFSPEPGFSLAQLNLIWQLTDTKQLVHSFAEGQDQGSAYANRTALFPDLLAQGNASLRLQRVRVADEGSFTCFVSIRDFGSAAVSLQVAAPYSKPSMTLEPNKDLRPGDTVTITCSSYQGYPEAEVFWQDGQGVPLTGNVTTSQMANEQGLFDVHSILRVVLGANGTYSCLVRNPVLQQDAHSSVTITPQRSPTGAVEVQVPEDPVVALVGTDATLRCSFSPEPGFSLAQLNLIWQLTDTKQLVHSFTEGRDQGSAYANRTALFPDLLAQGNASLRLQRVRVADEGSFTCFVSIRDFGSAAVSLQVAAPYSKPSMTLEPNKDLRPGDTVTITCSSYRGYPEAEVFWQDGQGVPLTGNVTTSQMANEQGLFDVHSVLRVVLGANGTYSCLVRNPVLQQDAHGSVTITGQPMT
Experiment: SPR (Biacore T200), antibody captured on Protein A chip, His-tagged antigen injected
experimentalReadout: kon

Guide cases for kon, answers given:
binder | kon
10D7 (antibody, human IgG1, kappa, V domains shown, also called 10D7-WT; Ab10D7) VH: QVQLVQSGPGLVKPSETLSLTCTVSGGSISRSSYYWGWIRQPPGKGLEWIGNIFYAGSTYYNPSLKSRVTISVDTSKNQFSLKLSSVTAADTAVYYCARRITGTTGWFDPWGQGTLVTVSS VL: DIQLTQSPSSLSASVGDRVTITCRASQGIRNDLGWYQQKPGKAPKLLIYAASTLQSGVPSRFSGSGSGTDFTLTISSLQPEDFATYYCLQDYNYPRTFGQGTKVEIKR | 263000 M⁻¹ s⁻¹
6B5 (antibody, human IgG1, kappa, V domains shown, also called 6B5-WT; Ab6B5) VH: QVQLVESGPGLVKPSQTLSLTCTVSDGSISSGGYYWSWIRQHPGKGLEWIGYIYYSGGTYYSPSLKSRVTISVDTSKNQFSLKLTSVTAADTAVYYCARRAGYSSSFDSWGQGILVTVSS VL: EIVLTQSPLSLPVTPGEPASISCRSSQSLLYSNGYTYLDWYLQKPGQSPQFLIYLGFNRASGVPDRFSGSGSGTDFTLKISRVEAEDVGVYYCMQGLQTPYTFGQGTKLEIKR | 247000 M⁻¹ s⁻¹
Enoblituzumab (antibody, human IgG1, kappa, V domains shown, Humanized anti-B7-H3 antibody of MacroGenics with optimised Fc, used as the positive control; also called AbEno; enoblituzumab-IgG1-Mut) VH: EVQLVESGGGLVQPGGSLRLSCAASGFTFSSFGMHWVRQAPGKGLEWVAYISSDSSAIYYADTVKGRFTISRDNAKNSLYLQMNSLRDEDTAVYYCGRGRENIYYGSRLDYWGQGTTVTVSS VL: DIQLTQSPSFLSASVGDRVTITCKASQNVDTNVAWYQQKPGKAPKALIYSASYRYSGVPSRFSGSGSGTDFTLTISSLQPEDFATYYCQQYNNYPFTFGQGTKLEIKR | 216000 M⁻¹ s⁻¹

# evaluate next
Ask: Given the binder 10F5 (antibody, human IgG1, kappa, V domains shown, also called Ab10F5) VH: QVQLVQSGAEVKKPGSSVKVSCKASGGTFSSQAISWVRQAPGQGLEWMGRIIPMLGIGDYAQSFQGRVTITADKSTSTAYLEVSSLGSEDTAVYYCAREGIAALGTNYYYGMDVWGQGTAVTVSS VL: EIVMTQSPSSVSASVGDRVTITCRASQGISRWLAWYQQKPGKAPKLLIYVASSLQSGVPSRFSGSGSGTDFTLTISSLQPEDFATYYCQQANSFPFTFGPGTKVDIRR , write its reported kon.
Result: 109000 M⁻¹ s⁻¹
